Reference source for all entries: PubChem BioAssay AID2401

# method_notes: nmpC-GFP reporter counter-screen in S. Typhimurium, dose response, counter-screen for PhoP regulon inhibitor project, Salmonella Typhimurium, GFP fluorescence (AID 2401);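 also: S. typhimurium with Mg-insensitive nmpC-GFP reporter grown at 10 µM Mg2+; drop in reporter fluorescence reflects general culture growth inhibition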
# condition_info: 4 h; series mostly up to 150 µM
In all, about 2,200 compounds went through this assay and about 530 (24%) were called active. Only a sample is shown. Entries with a potency or affinity are not part of this list.
property_label: outcome

1) Clc1ccc(Nc2ccc(NCc3ccccc3)nn2)cc1: inactive
2) Cc1[nH][nH]c(=O)c1C(c1ccc(O)c([N+](=O)[O-])c1)c1c(C)[nH][nH]c1=O: inactive
3) O=C(O)CCc1nn2c3ccccc3n(CC(=O)c3ccccc3)c2nc1=O: inactive
4) Clc1ccc(Cn2ncc3c(NCc4ccco4)ncnc32)c(Cl)c1: inactive
5) COc1ccc(C2=Nc3nc(-c4ccccc4)cn3C(c3ccc(OC)cc3)C2)cc1 (stereo not given): inactive

----------
# method_notes: nmpC-GFP reporter counter-screen in S. Typhimurium, dose response, counter-screen for PhoP regulon inhibitor project, Salmonella Typhimurium, GFP fluorescence (AID 2401);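 also: S. typhimurium with Mg-insensitive nmpC-GFP reporter grown at 10 µM Mg2+; drop in reporter fluorescence reflects general culture growth inhibition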
# condition_info: 4 h; series mostly up to 150 µM
About 530 (24%) of roughly 2,200 compounds were called active. Only a sample is shown. Entries with a potency or affinity are not part of this list.
property_label: outcome

1) CCOc1cccc(CNc2ccc(O)cc2)c1OCc1ccc(Cl)cc1Cl: inactive
2) O=C1CCc2cc(S(=O)(=O)N3CCN(c4cccc(Cl)c4)CC3)ccc2N1: inactive
3) O=C(NC1CCCCC1)C(c1ccncc1)N(CC1CCCO1)C(=O)C(F)(F)F (configuration not stated): inactive
4) C=CCOc1ccc(Br)cc1/C=N/O: inactive
5) Cc1cccc(OCCCSc2nc3ccc(C)cc3[nH]2)c1: inactive
6) Brc1ccc(NC2=Nc3ccccc3CC2)cc1: inactive
7) Cc1ccc(CNC(=O)Nc2cccs2)cc1: inactive
8) COC(=O)C1=C(CSc2nc3ccccc3o2)NC(=O)NC1c1cc(C)ccc1C (configuration not stated): inactive
9) COc1ccc(C2CC(c3ccccc3)=NN2C(=O)COC(=O)c2cccnc2)cc1 (configuration not stated): inactive
10) COc1ccccc1NC(=O)Cn1nnc(-c2ccccc2NC(=O)c2cccs2)n1: inactive
11) CCC(CC)C(=O)NCCc1ccc(OC)cc1: inactive
12) C#CCOc1ccc(/C=N/O)cc1Cl: inactive

----------
# method_notes: nmpC-GFP reporter counter-screen in S. Typhimurium, dose response, counter-screen for PhoP regulon inhibitor project, Salmonella Typhimurium, GFP fluorescence (AID 2401);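 also: S. typhimurium with Mg-insensitive nmpC-GFP reporter grown at 10 µM Mg2+; drop in reporter fluorescence reflects general culture growth inhibition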
# condition_info: 4 h; series mostly up to 150 µM
Out of some 2,200 compounds screened, about 530 (24%) were called active. These entries were drawn from the full list. Results with a measured potency or affinity are listed apart.
property_label: outcome

1. COc1ccc(N=c2cc(-c3ccc(OC)cc3)oc3ccccc23)cc1: inactive
2. Cc1ccc(-n2sc3ccccc3c2=O)cc1S(=O)(=O)N1CCCCC1: inactive
3. CCC(Sc1ncccc1C(=O)OC(C)C)C(=O)N1CCOCC1 (stereo unspecified): inactive
4. Cc1ccc2nc(-c3ccc(Br)o3)oc(=O)c2c1: inactive
5. CC1CCN(S(=O)(=O)c2cccc(C(=O)N(C)C3CCS(=O)(=O)C3)c2)CC1 (stereo unspecified): inactive
6. O=C1CC(N2CCN(Cc3ccccc3)CC2)C(=O)N1c1ccccc1 (stereo unspecified): inactive
7. CN(C)C(=O)c1cn(N(C)c2ncc(C(F)(F)F)cc2Cl)c(=O)c2ccccc12: inactive
8. COC(=O)c1ccc(C(=O)OC)c(NC(=O)COc2ccccc2OC)c1: inactive
9. O=C(NCC(=O)N(c1cccnc1)C(C(=O)NCc1ccco1)c1ccccc1)c1ccco1 (stereo unspecified): inactive
10. CCOC(=O)c1[nH]c2ccccc2c1NC(=O)C(C)(C)C: inactive
11. O=C(c1[nH]ncc1-c1ccc(Cl)cc1)C1CO1 (stereo unspecified): inactive
